details: human, serum;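 further: human clinical chemistry: moderate when serum ALT or AST reaches 6× upper normal limit or alkaline phosphatase 1.7×, value counts indexed literature references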
The entries below are paired with their reported Hepatotoxicity (moderate).

CCN(CC)CCCC(C)Nc1ccnc2cc(Cl)ccc12 (stereo not drawn): 7

I am curious: what Hepatotoxicity (moderate) value has been reported for `CN1CCN(C2=Nc3cc(F)ccc3Cc3ccccc32)CC1` ?
4

Thanks! And `O=C(O)P(=O)(O)O` ?
2

Thanks! And CCC(C)n1ncn(-c2ccc(N3CCN(c4ccc(OCC5COC(Cn6cncn6)(c6ccc(Cl)cc6Cl)O5)cc4)CC3)cc2)c1=O (stereo not drawn) ?
55

Thanks! And CC12CCC(CC1=O)C2(C)C (stereo not drawn) ?
0

Thanks! And `COC(=O)[C@H](c1ccccc1Cl)N1CCc2sccc2C1` ?
2

Thanks! And `Cc1ncc([N+](=O)[O-])n1CCO` ?
4

Thanks! And `C[C@H]1O[C@@H](O[C@H]2[C@@H](O)C[C@H](O[C@H]3[C@@H](O)C[C@H](O[C@H]4CC[C@@]5(C)[C@H](CC[C@@H]6[C@@H]5C[C@@H](O)[C@]5(C)[C@@H](C7=CC(=O)OC7)CC[C@]65O)C4)O[C@@H]3C)O[C@@H]2C)C[C@H](O)[C@@H]1O` ?
1
